Where these numbers come from: patent US20240201167A1

target_entity: T1, human B7-1 (CD80), full length, expressed on HEK 293 cells (Homo sapiens, UniProt P33681 35-280)
T1 construct: also called hB7-1; B7-1-mCherry
T1 sequence: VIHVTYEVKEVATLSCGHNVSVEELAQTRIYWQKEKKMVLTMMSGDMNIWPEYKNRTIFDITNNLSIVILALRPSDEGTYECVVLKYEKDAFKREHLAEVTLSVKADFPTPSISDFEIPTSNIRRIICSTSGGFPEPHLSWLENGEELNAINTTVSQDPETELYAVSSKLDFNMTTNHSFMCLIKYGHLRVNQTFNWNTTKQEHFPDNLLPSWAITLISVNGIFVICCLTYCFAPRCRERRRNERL
assay_notes: cell-cell binding, flow cytometry; percent of the wild-type pair
assay_readout: percent binding (%)
Express your answer in %, writing the number without its unit.

Below: 2 binders and their reported percent binding.
human p75NTR P150K on cells (receptor, Fluorescent-tagged point mutant) KEACPTGLYTHSGECCKACNLGEGVAQPCGANQTVCEPCLDSVTFSDVVSATEPCKPCTECVGLQSMSAPCVEADDAVCRCAYGYYQDETTGRCEACRVCEAGSGLVFSCQDKQNTVCEECKDGTYSDEANHVDPCLPCTVCEDTERQLRECTRWADAECEEIPGRWITRSTPPEGSDSTAPSTQEPEAPPEQDLIASTVAGVVTTVMGSSQPVVTRGTTDNLIPVYCSILAAVVVGLVAYIAFKRWNSCKQNKQGANSRPVNQTPPPEGEKLHSDSGISVDSQSLHDQQPHTQTASGQALKGDGGLYSSLPPAKREEVEKLLNGSAGDTWRHLAGELGYQPEHIDSFTHEACPVRALLASWATQDSATLDALLAALRRIQRADLVESLCSESTATSPV	69
human p75NTR F136H on cells (receptor, Fluorescent-tagged point mutant) KEACPTGLYTHSGECCKACNLGEGVAQPCGANQTVCEPCLDSVTFSDVVSATEPCKPCTECVGLQSMSAPCVEADDAVCRCAYGYYQDETTGRCEACRVCEAGSGLVHSCQDKQNTVCEECPDGTYSDEANHVDPCLPCTVCEDTERQLRECTRWADAECEEIPGRWITRSTPPEGSDSTAPSTQEPEAPPEQDLIASTVAGVVTTVMGSSQPVVTRGTTDNLIPVYCSILAAVVVGLVAYIAFKRWNSCKQNKQGANSRPVNQTPPPEGEKLHSDSGISVDSQSLHDQQPHTQTASGQALKGDGGLYSSLPPAKREEVEKLLNGSAGDTWRHLAGELGYQPEHIDSFTHEACPVRALLASWATQDSATLDALLAALRRIQRADLVESLCSESTATSPV	90

percent binding recorded for this binder, human p75NTR P150H on cells (receptor, Fluorescent-tagged point mutant) KEACPTGLYTHSGECCKACNLGEGVAQPCGANQTVCEPCLDSVTFSDVVSATEPCKPCTECVGLQSMSAPCVEADDAVCRCAYGYYQDETTGRCEACRVCEAGSGLVFSCQDKQNTVCEECHDGTYSDEANHVDPCLPCTVCEDTERQLRECTRWADAECEEIPGRWITRSTPPEGSDSTAPSTQEPEAPPEQDLIASTVAGVVTTVMGSSQPVVTRGTTDNLIPVYCSILAAVVVGLVAYIAFKRWNSCKQNKQGANSRPVNQTPPPEGEKLHSDSGISVDSQSLHDQQPHTQTASGQALKGDGGLYSSLPPAKREEVEKLLNGSAGDTWRHLAGELGYQPEHIDSFTHEACPVRALLASWATQDSATLDALLAALRRIQRADLVESLCSESTATSPV , is 38

percent binding recorded for this binder, human p75NTR L165K on cells (receptor, Fluorescent-tagged point mutant; also called LEU165K*) KEACPTGLYTHSGECCKACNLGEGVAQPCGANQTVCEPCLDSVTFSDVVSATEPCKPCTECVGLQSMSAPCVEADDAVCRCAYGYYQDETTGRCEACRVCEAGSGLVFSCQDKQNTVCEECPDGTYSDEANHVDPCKPCTVCEDTERQLRECTRWADAECEEIPGRWITRSTPPEGSDSTAPSTQEPEAPPEQDLIASTVAGVVTTVMGSSQPVVTRGTTDNLIPVYCSILAAVVVGLVAYIAFKRWNSCKQNKQGANSRPVNQTPPPEGEKLHSDSGISVDSQSLHDQQPHTQTASGQALKGDGGLYSSLPPAKREEVEKLLNGSAGDTWRHLAGELGYQPEHIDSFTHEACPVRALLASWATQDSATLDALLAALRRIQRADLVESLCSESTATSPV , is 83

percent binding recorded for this binder, human p75 neurotrophin receptor, full length, expressed on HEK 293 cells (receptor, Full-length human p75 with a cytosolic fluorescent tag (GFP); also called p75NTR; NGFR) KEACPTGLYTHSGECCKACNLGEGVAQPCGANQTVCEPCLDSVTFSDVVSATEPCKPCTECVGLQSMSAPCVEADDAVCRCAYGYYQDETTGRCEACRVCEAGSGLVFSCQDKQNTVCEECPDGTYSDEANHVDPCLPCTVCEDTERQLRECTRWADAECEEIPGRWITRSTPPEGSDSTAPSTQEPEAPPEQDLIASTVAGVVTTVMGSSQPVVTRGTTDNLIPVYCSILAAVVVGLVAYIAFKRWNSCKQNKQGANSRPVNQTPPPEGEKLHSDSGISVDSQSLHDQQPHTQTASGQALKGDGGLYSSLPPAKREEVEKLLNGSAGDTWRHLAGELGYQPEHIDSFTHEACPVRALLASWATQDSATLDALLAALRRIQRADLVESLCSESTATSPV , is 100

percent binding recorded for this binder, human p75NTR F136K on cells (receptor, Fluorescent-tagged point mutant) KEACPTGLYTHSGECCKACNLGEGVAQPCGANQTVCEPCLDSVTFSDVVSATEPCKPCTECVGLQSMSAPCVEADDAVCRCAYGYYQDETTGRCEACRVCEAGSGLVKSCQDKQNTVCEECPDGTYSDEANHVDPCLPCTVCEDTERQLRECTRWADAECEEIPGRWITRSTPPEGSDSTAPSTQEPEAPPEQDLIASTVAGVVTTVMGSSQPVVTRGTTDNLIPVYCSILAAVVVGLVAYIAFKRWNSCKQNKQGANSRPVNQTPPPEGEKLHSDSGISVDSQSLHDQQPHTQTASGQALKGDGGLYSSLPPAKREEVEKLLNGSAGDTWRHLAGELGYQPEHIDSFTHEACPVRALLASWATQDSATLDALLAALRRIQRADLVESLCSESTATSPV , is 81

percent binding recorded for this binder, human p75NTR L165H on cells (receptor, Fluorescent-tagged point mutant; also called LEU165H*) KEACPTGLYTHSGECCKACNLGEGVAQPCGANQTVCEPCLDSVTFSDVVSATEPCKPCTECVGLQSMSAPCVEADDAVCRCAYGYYQDETTGRCEACRVCEAGSGLVFSCQDKQNTVCEECPDGTYSDEANHVDPCHPCTVCEDTERQLRECTRWADAECEEIPGRWITRSTPPEGSDSTAPSTQEPEAPPEQDLIASTVAGVVTTVMGSSQPVVTRGTTDNLIPVYCSILAAVVVGLVAYIAFKRWNSCKQNKQGANSRPVNQTPPPEGEKLHSDSGISVDSQSLHDQQPHTQTASGQALKGDGGLYSSLPPAKREEVEKLLNGSAGDTWRHLAGELGYQPEHIDSFTHEACPVRALLASWATQDSATLDALLAALRRIQRADLVESLCSESTATSPV , is 64
